Numbers sourced from ChEMBL document CHEMBL3352227.

- Test system: Staphylococcus aureus
- PROTOCOL DESCRIPTION: Antibacterial activity against methicillin-sensitive Staphylococcus aureus 12-5 after 18 to 24 hrs by standard twofold serial dilution method
- Type: functional
Quick reference for MIC among some molecules
Report as a plain number; the unit µg/mL is understood.

# example entries with known answers
CO/N=C1/CN(c2nc3c(cc2F)c(=O)c(C(=O)O)cn3[C@@H]2C[C@@H]2F)[C@@H]1CN ... 0.5
CO/N=C1/CN(c2c(F)cc3c(=O)c(C(=O)O)cn([C@@H]4C[C@@H]4F)c3c2OC)[C@H]1CN ... 0.125
CO/N=C1/CCN(c2c(F)cc3c(=O)c(C(=O)O)cn([C@@H]4C[C@@H]4F)c3c2Cl)CC1N (stereo not given in full) ... 0.25

Entry `CCO/N=C1/CN(c2nc3c(cc2F)c(=O)c(C(=O)O)cn3[C@@H]2C[C@@H]2F)[C@@H]1CN` : reported MIC = ?
0.5

Query (molecule): `NC[C@H]1/C(=N\OCc2ccccc2)CN1c1nc2c(cc1F)c(=O)c(C(=O)O)cn2[C@@H]1C[C@@H]1F` ; field requested: MIC
0.25

What does the data say about its MIC? Entry: CO/N=C1/CN(c2cc3c(cc2F)c(=O)c(C(=O)O)cn3[C@@H]2C[C@@H]2F)CC1CN (stereo not given in full)
0.125

Any idea what its MIC is? The molecule is NCC1CN(c2c(F)cc3c(=O)c(C(=O)O)cn([C@@H]4C[C@@H]4F)c3c2Cl)C/C1=N/OCc1ccccc1 (stereo not given in full)
0.5

====

- Test system: Staphylococcus epidermidis
- PROTOCOL DESCRIPTION: Antibacterial activity against methicillin-sensitive Staphylococcus epidermidis 12-8 after 18 to 24 hrs by standard twofold serial dilution method
- Type: functional
Some molecules, each annotated with its measured MIC.
Only the number, expressed in µg/mL, is required.

Here's what some known entries look like.
COc1c(N2C[C@@H]3CCCN[C@@H]3C2)c(F)cc2c(=O)c(C(=O)O)cn(C3CC3)c12 ... 1
CO/N=C1/CN(c2c(F)cc3c(=O)c(C(=O)O)cn([C@@H]4C[C@@H]4F)c3c2OC)[C@H]1CN ... 2
CCO/N=C1/CN(c2cc3c(cc2F)c(=O)c(C(=O)O)cn3[C@@H]2C[C@@H]2F)[C@@H]1CN ... 4

Name the recorded MIC for `CCO/N=C1/CN(c2nc3c(cc2F)c(=O)c(C(=O)O)cn3[C@@H]2C[C@@H]2F)[C@H]1CN` .
16

====

molecules and their reported MIC
- Test system: Klebsiella pneumoniae
- PROTOCOL DESCRIPTION: Antibacterial activity against Klebsiella pneumoniae 12-2 after 18 to 24 hrs by standard twofold serial dilution method
- Assay type: functional
Numeric only. Scale: µg/mL

CCO/N=C1/CN(c2cc3c(cc2F)c(=O)c(C(=O)O)cn3[C@@H]2C[C@@H]2F)[C@H]1CN ... 0.06
CO/N=C1/CCN(c2c(F)cc3c(=O)c(C(=O)O)cn([C@@H]4C[C@@H]4F)c3c2OC)CC1N (stereo partly drawn) ... 0.5
CO/N=C1/CN(c2nc3c(cc2F)c(=O)c(C(=O)O)cn3[C@@H]2C[C@@H]2F)[C@H]1CN ... 0.25
NC[C@@H]1/C(=N\OCc2ccccc2)CN1c1cc2c(cc1F)c(=O)c(C(=O)O)cn2[C@@H]1C[C@@H]1F ... 0.5
CCO/N=C1/CN(c2c(F)cc3c(=O)c(C(=O)O)cn([C@@H]4C[C@@H]4F)c3c2OC)CC1CN (stereo partly drawn) ... 4
NC[C@H]1/C(=N\OCc2ccccc2)CN1c1cc2c(cc1F)c(=O)c(C(=O)O)cn2[C@@H]1C[C@@H]1F ... 0.06
CO/N=C1/CN(c2cc3c(cc2F)c(=O)c(C(=O)O)cn3[C@@H]2C[C@@H]2F)[C@@H]1CN ... 0.5

Let us move to another entry and its MIC.
# get_value(readout= MIC, system= Klebsiella pneumoniae) for `CCO/N=C1/CN(c2nc3c(cc2F)c(=O)c(C(=O)O)cn3[C@@H]2C[C@@H]2F)[C@@H]1CN`
1
